- experimental_target: HLA-DRB1*04:01 (Homo sapiens, UniProt P01903+P01911, A100K/A169T/F76Y/I96L/K127E/L162R/M171V/N62H/P40V/Q125Y/R42H/S133A/S149N/S66Y/V115G/V209L/W38E)
- assay_method_text: Peptide competition binding assay to HLA-DRB1*04:01
pEC50: −log10 of the molar value. Where a SMILES comes first, the peptide text is derived from it. [ ]: non-standard residue; d: D form. Cit = NC(=O)NCCC[C@H](N)C(=O)O
Readings of pEC50 for the listed compounds

compound	pEC50
CC[C@H](C)[C@H](NC(=O)[C@H](CCC(=O)O)NC(=O)[C@H](C)NC(=O)[C@H](CCCNC(N)=O)NC(=O)[C@H](CC(C)C)NC(=O)[C@@H]1CCCN1C(=O)[C@H](CCCCN)NC(=O)[C@@H](N)[C@@H](C)O)C(=O)N[C@H](C(=O)N[C@H](C(=O)N[C@@H](CCC(=O)O)C(=O)N[C@@H](C)C(=O)N[C@@H](CCC(=O)O)C(=O)N1CCC[C@H]1C(=O)N[C@@H](CCC(=O)O)C(=O)O)[C@@H](C)O)C(C)C [TNC44] (H-TKPL[Cit]AEIVTEAEPE-OH)	4.48
CC[C@H](C)[C@H](NC(=O)[C@H](C)NC(=O)[C@@H]1CCCN1C(=O)[C@H](CCC(N)=O)NC(=O)[C@H](Cc1c[nH]c2ccccc12)NC(=O)[C@H](CCCNC(N)=O)NC(=O)[C@H](C)NC(=O)[C@@H](N)CC(C)C)C(=O)N[C@@H](C)C(=O)N[C@H](C(=O)N[C@H](C(=O)N[C@@H](CC(=O)O)C(=O)N[C@@H](CO)C(=O)N[C@@H](Cc1ccc(O)cc1)C(=O)N[C@H](C(=O)O)C(C)C)C(C)C)[C@@H](C)O [TNC52] (H-LA[Cit]WQPAIATVDSYV-OH)	4.54
CC[C@H](C)[C@H](NC(=O)[C@H](CC(C)C)NC(=O)[C@H](CO)NC(=O)[C@@H](N)C(C)C)C(=O)N[C@@H](CO)C(=O)N[C@@H](CCCNC(N)=O)C(=O)N[C@@H](CCCNC(N)=O)C(=O)NCC(=O)N[C@@H](CC(=O)O)C(=O)N[C@@H](CCSC)C(=O)N[C@@H](CO)C(=O)N[C@@H](CO)C(=O)N[C@@H](CC(N)=O)C(=O)N1CCC[C@H]1C(=O)N[C@@H](C)C(=O)O [TNC17] (H-VSLIS[Cit][Cit]GDMSSNPA-OH)	5.44
